Collected AC50 values appear next to each entry.
- Tested on: SK-MEL-5 TRPM1 promoter luciferase reporter, 24 h
- procedure.summary: decrease of TRPM1 reporter luminescence in SK-MEL-5 – cell-based, dry powder samples, set 4, MITF inhibitor project, dose response (AID 624316)
property: AC50

In [3]: df
Out[3]:
                                    molecule  reported_result
 0  CCN1CCN(C2=C(Nc3ccccc3)C(=O)c3ccccc3C2=O)CC1         0.689 µM
 1                    NC1=CC(=O)c2ccccc2C1=O          1.41 µM
 2  CCN1CCN(C2=C(NC(=O)c3ccc(Br)cc3)C(=O)c3ccccc3C2=O)CC1         0.566 µM
 3  O=C(NC1=C(c2ccccc2)C(=O)c2ccccc2C1=O)c1ccco1          8.11 µM
 4      C=CCNC1=C(N2CCCCC2)C(=O)c2ccccc2C1=O         0.538 µM
 5  O=C1C(Nc2ccccc2)=C(N2CCN(c3ccccc3)CC2)C(=O)c2ccccc21          8.06 µM
 6  Cc1ccc(C(=O)NC2=C(c3ccccc3)C(=O)c3ccccc3C2=O)o1           4.8 µM
 7  COc1ccc(C(=O)NC2=C(c3ccc(OC(F)(F)F)cc3)C(=O)c3ccccc3C2=O)cc1          35.5 µM
 8  CC1CCN(CC(CS(=O)(=O)c2ccc([N+](=O)[O-])cc2)N2CCC(C)CC2)CC1 (stereo unspecified)          4.72 µM
 9  CC(=O)N(C)C1=C(N2CCN(C)CC2)C(=O)c2ccccc2C1=O         0.372 µM
10   C=CCNC1=C(NCCCN(CC)CC)C(=O)c2ccccc2C1=O          3.12 µM
11  CC(=O)NC1=C(c2ccc(Cl)cc2)C(=O)c2ccccc2C1=O          5.17 µM
12    NC1=C(NC(=O)c2ccccc2)C(=O)c2ccccc2C1=O          4.37 µM
13  Cc1nc2ccccc2n1/N=C/c1ccc([N+](=O)[O-])s1          1.86 µM
14  O=C1C(NS(=O)(=O)c2ccc(Br)cc2)=C(c2ccccc2)C(=O)c2ccccc21            24 µM
15  O=C(NC1=C(c2ccc(OC(F)(F)F)cc2)C(=O)c2ccccc2C1=O)c1ccc(Br)cc1          20.5 µM
16  CCN1CCN(C2=C(NS(=O)(=O)c3cccs3)C(=O)c3ccccc3C2=O)CC1          1.73 µM
17  COc1cccc(C2=C(NC(=O)c3ccccc3)C(=O)c3ccccc3C2=O)c1          13.9 µM
18  CN1CCN(C2=C(NS(=O)(=O)c3ccccc3)C(=O)c3ccccc3C2=O)CC1         0.614 µM
19  CCN1CCN(C2=C(NS(=O)(=O)c3ccc(Br)cc3)C(=O)c3ccccc3C2=O)CC1          4.06 µM
20  O=C1C(Nc2ccccc2)=C(NS(=O)(=O)c2ccccc2[N+](=O)[O-])C(=O)c2ccccc21            29 µM

* * *

- Test system: SK-MEL-5 TRPM1 promoter luciferase reporter, 24 h
- procedure.summary: decrease of TRPM1 reporter luminescence in SK-MEL-5 – cell-based, dry powder samples, set 4, MITF inhibitor project, dose response (AID 624316)
Collected AC50 values appear next to each entry.
property: AC50

>>> print(df.to_string())
                                chem_smiles  reported_result
0  COc1ccc(C2=C(NC(=O)c3ccccc3OC)C(=O)c3ccccc3C2=O)cc1          15.7 µM
1  CN1CCN(C2=C(NC(=O)c3ccccc3)C(=O)c3ccccc3C2=O)CC1         0.508 µM
2  CCN1CCN(C2=C(N(C)C(C)=O)C(=O)c3ccccc3C2=O)CC1         0.367 µM
3  O=C1C(NS(=O)(=O)c2ccc(Br)cc2)=C(N2CCSCC2)C(=O)c2ccccc21          9.91 µM
4      C=CCNC1=C(N2CCOCC2)C(=O)c2ccccc2C1=O          1.54 µM
5  O=C1C(NS(=O)(=O)c2ccc(Br)cc2)=C(N2CCN(c3ccccc3)CC2)C(=O)c2ccccc21          17.1 µM
6          NC1=C(c2ccccc2)C(=O)c2ccccc2C1=O          7.61 µM
7  O=C(CNc1cccc2ccccc12)N/N=C/c1ccc([N+](=O)[O-])o1          1.67 µM
8  CCN(CC)CCNC1=C(Nc2ccccc2)C(=O)c2ccccc2C1=O          1.66 µM
9  C=CCNC1=C(NS(=O)(=O)c2ccc(Br)cc2)C(=O)c2ccccc2C1=O          7.27 µM

Values from PubChem BioAssay AID624316
